Consider the following EC50 values measured on UniProt:Q95V25.
Sequence (Q95V25 whole entry): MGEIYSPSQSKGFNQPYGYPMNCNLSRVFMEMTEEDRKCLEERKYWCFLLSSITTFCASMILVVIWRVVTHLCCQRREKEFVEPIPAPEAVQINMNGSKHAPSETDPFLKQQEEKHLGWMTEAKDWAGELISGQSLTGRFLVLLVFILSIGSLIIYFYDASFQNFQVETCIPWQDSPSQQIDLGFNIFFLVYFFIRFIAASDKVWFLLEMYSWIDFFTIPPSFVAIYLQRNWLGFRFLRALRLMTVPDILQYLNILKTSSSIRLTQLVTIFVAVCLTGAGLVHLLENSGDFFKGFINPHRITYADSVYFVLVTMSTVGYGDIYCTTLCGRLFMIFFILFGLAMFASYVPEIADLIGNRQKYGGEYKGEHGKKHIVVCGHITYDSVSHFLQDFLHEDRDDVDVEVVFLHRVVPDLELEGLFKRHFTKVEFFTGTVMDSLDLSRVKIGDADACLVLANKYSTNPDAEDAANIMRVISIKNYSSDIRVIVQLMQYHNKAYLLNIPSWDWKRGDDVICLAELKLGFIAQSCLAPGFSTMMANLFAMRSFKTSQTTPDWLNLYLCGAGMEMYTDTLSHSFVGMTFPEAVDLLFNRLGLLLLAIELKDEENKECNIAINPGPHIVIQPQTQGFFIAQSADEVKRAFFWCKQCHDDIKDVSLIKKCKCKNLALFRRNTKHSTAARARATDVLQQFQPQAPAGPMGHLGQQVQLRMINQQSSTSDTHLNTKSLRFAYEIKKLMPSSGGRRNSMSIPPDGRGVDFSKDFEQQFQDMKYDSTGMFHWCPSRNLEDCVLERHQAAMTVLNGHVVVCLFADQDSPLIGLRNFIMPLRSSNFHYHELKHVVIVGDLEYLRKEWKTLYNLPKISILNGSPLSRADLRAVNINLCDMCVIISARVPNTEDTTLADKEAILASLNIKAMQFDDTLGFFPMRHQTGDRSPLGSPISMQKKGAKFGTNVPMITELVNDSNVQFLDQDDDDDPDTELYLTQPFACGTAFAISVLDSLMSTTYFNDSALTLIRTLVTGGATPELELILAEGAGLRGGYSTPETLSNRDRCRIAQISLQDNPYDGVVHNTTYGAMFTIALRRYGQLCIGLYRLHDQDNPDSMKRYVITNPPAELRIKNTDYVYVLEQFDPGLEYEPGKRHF
measuredProperty: EC50

molecule | measuredProperty | assayResult
C[C@@H]1CN(c2cccc3c(N4CCOCC4)c(C(=O)N[C@H]4CCOc5ccccc54)cnc23)C[C@@H](C)O1 | EC50 | 316 to 5010 nM
CN(C)c1c(C(=O)N[C@H]2CCOc3ccccc32)cnc2c(C3CCC(C(F)(F)F)CC3)cccc12 (some centres unmarked) | EC50 | 3.16 to 31.6 nM
CC(C)c1c(C(=O)N[C@H]2CCOc3ccccc32)cnc2c(N3C[C@H](C)C[C@H](C)C3)c(F)ccc12 | EC50 | < 3.16 nM
C[C@@H]1COCCN1c1cccc2c(N3CCOCC3)c(C(=O)N[C@H]3CCOc4ccccc43)cnc12 | EC50 | 316 to 5010 nM
CC(C)c1c(C(=O)N[C@H]2CCOc3ccccc32)cnc2c(N3CCCCC3)cccc12 | EC50 | 31.6 to 316 nM
COCC#Cc1cccc2c(N(C)C)c(C(=O)N[C@H]3CCOc4ccccc43)cnc12 | EC50 | 316 to 5010 nM
CN(C)c1c(C(=O)N[C@H]2CCOc3ccccc32)cnc2c(N3CCCCC3)cccc12 | EC50 | 31.6 to 316 nM
CN(C)c1c(C(=O)N[C@H]2CCc3ccccc32)cnc2c(N3CCCCC3)c(F)ccc12 | EC50 | 3.16 to 31.6 nM
